EXPERIMENT_DESCRIPTION: Selectivity index, ratio IC50 for antiproliferative activity against human HCV-29 cells over IC50 for antiproliferative activity against human T24 cells
Type: toxicity, cell-based
EXPERIMENTAL_SETUP: HCV-29 cells versus T24 cells
Kindly note that classification relies on SI with these boundaries: lower (below 3), middle (3 to below 4), upper (4 or more)

>>> print(df.to_string())
                            compound_string  assigned_class
0  Cc1ccc(NC(=O)Nc2cccc(CNc3nccnc3Cl)c2)c(C)c1           lower
1  O=C(Nc1cccc(Cl)c1)Nc1cccc(CNc2nccnc2Cl)c1          middle
2  O=C(Nc1ccc(C(F)(F)F)cc1)Nc1cccc(CNc2nccnc2Cl)c1           upper
3  O=C(Nc1ccc(Cl)cc1)Nc1cccc(CNc2nccnc2Cl)c1          middle
4  Cc1ccc(NC(=O)Nc2cccc(CNc3nccnc3Cl)c2)cc1C           lower
5  CC(C)(C)c1ccc(NC(=O)Nc2cccc(CNc3nccnc3Cl)c2)cc1           lower
6  O=C(Nc1cccc(CNc2nccnc2Cl)c1)Nc1ccc(Cl)cc1Cl           upper
7  O=C(Nc1cccc(CNc2nccnc2Cl)c1)Nc1ccc(Cl)cc1Br          middle
8  CCOc1ccc(NC(=O)Nc2cccc(CNc3nccnc3Cl)c2)cc1          middle
9  O=C(Nc1cccc(CNc2nccnc2Cl)c1)Nc1ccc(F)c(Cl)c1           upper

# credit: ChEMBL document CHEMBL5104108
